# procedure.summary: Solubility in propylene glycol methyl ether acetate
# Format: physicochemical
# applied.conditions: organic solvent or mixture, thermodynamic from solid, at 25° C., read-out: solubility in propylene glycol methyl ether acetate (compound (1))
readout.kind: solubility at 30 min

O=c1c2ccccc2[nH]c2cc3c(=O)c4ccccc4n(CCCCS(=O)(=O)O)c3cc12: ≥ 500 µg/mL

Please examine the following record next.
Query: Recorded solubility at 30 min for O=C1C(=C2C(O)=CC(N(c3ccc(S(=O)(=O)O)cc3)c3ccc(S(=O)(=O)O)cc3)C=C2O)C(O)=C1c1c(O)cc(N(c2ccc(S(=O)(=O)O)cc2)c2ccc(S(=O)(=O)O)cc2)cc1O (centres unmarked) [Example P2] , please?
Reply: 100 to 500 µg/mL

Cited source: patent US12152139B2
